Test: In vivo PK study, determination of brain-to-plasma ratio
Conditions: male, mouse, brain/plasma; SHK mice, PO dosing 5mg/kg, 20% water solution of HPβCD; read-out: brain-to-plasma concentration ratio
Measured Kp, listed per entry.

Completed entries (count: 4):
[[record]]
compound = "OCCN1CCC(Cc2ccnc(Nc3ncc(-c4ccc(F)cc4)s3)c2)CC1"
obs_value = 3.66

[[record]]
compound = "Fc1ccc(-c2cnc(Nc3cc(CC4CNCCNC4)ccn3)s2)cc1"
obs_value = 0.96

[[record]]
compound = "Fc1ccc(-c2cnc(Nc3cc(CC4CCCC5CNCC54)ccn3)s2)cc1 (centres unmarked)"
obs_value = 0.28

[[record]]
compound = "Fc1ccc(-c2cnc(Nc3cc(CC4CNCCOC4)ccn3)s2)cc1 (centres unmarked)"
obs_value = 10.3


# query: Kp of entry `Cc1nc(Nc2ncc(-c3ccccc3)s2)cc(C2CCN(CCO)CC2)n1`
0.81

====

Target: UniProt:P35968
Sequence (P35968 20-1356, species assumed): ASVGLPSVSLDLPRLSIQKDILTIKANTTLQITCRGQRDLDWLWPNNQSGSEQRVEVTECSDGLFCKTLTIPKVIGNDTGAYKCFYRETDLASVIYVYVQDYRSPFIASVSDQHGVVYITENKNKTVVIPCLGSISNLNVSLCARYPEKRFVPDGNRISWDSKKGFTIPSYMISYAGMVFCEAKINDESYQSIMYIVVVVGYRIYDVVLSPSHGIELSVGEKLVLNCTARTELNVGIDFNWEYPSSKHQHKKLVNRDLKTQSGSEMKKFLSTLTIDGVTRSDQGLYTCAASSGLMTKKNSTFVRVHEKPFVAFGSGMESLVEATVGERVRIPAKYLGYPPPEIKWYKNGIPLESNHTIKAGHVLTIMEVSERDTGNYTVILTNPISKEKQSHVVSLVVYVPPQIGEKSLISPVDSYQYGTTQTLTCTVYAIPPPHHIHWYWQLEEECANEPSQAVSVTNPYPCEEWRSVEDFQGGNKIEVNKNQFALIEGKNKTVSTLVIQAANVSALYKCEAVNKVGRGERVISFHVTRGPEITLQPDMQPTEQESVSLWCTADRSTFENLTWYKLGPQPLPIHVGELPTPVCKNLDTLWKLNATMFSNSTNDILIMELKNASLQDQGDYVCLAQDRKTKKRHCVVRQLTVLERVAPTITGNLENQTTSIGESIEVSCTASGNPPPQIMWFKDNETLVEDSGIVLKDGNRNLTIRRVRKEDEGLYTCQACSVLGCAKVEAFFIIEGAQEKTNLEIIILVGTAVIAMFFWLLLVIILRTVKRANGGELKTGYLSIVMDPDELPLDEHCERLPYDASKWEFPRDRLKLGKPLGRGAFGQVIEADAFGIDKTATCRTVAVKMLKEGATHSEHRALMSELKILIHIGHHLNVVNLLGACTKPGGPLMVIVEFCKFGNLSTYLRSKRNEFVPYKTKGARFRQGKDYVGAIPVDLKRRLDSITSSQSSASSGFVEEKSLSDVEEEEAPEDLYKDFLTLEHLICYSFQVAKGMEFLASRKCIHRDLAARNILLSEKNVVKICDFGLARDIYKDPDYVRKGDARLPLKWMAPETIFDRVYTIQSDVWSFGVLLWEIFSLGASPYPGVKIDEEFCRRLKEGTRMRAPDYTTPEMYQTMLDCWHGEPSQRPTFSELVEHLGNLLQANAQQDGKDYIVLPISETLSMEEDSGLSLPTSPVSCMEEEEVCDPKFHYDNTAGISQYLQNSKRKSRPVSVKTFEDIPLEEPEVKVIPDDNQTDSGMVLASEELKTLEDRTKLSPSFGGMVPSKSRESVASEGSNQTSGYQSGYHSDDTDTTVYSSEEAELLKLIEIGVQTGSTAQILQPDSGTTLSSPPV
Test: Kinase inhibition assay (ELISA)
Format: biochemical
Conditions: 1.5 µM ATP
# IC50 per entry

Please look up its IC50: Fc1ccc(-c2cnc(Nc3cccc(CC4CNCCOC4)n3)s2)cc1 (stereo not drawn)
> 1000 nM

====

Documented IC50 across a set of compounds
System: A2780
Assay: MTT proliferation / cytotoxicity assay
Assay type: cell-based, human
Conditions: Homo sapiens, A2780, 72 h

Would you please look over these solved cases?
[[record]]
compound = "OCC(O)CN1CCC(c2ccnc(Nc3ncc(-c4ccc(F)cc4)s3)c2)CC1 (stereo not shown) [Example 034]"
target_system = "A2780"
obs_value = "> 10 µM"

[[record]]
compound = "OCCN1CCC(c2ccnc(Nc3ncc(-c4cc(F)cc(F)c4)s3)c2)CC1 [Example 039]"
target_system = "A2780"
obs_value = "> 10 µM"

[[record]]
compound = "Cc1cc(Nc2ncc(-c3ccccc3)s2)nc(C2CCN(CCO)CC2)n1 [Example 029]"
target_system = "A2780"
obs_value = "≤ 1 µM"


Record lookup: for A2780, what IC50 belongs to CC(=O)N1CCC(Cc2ccnc(Nc3ncc(-c4ccc(F)cc4)s3)c2)CC1 [Example 002] ?
> 1 µM

Notebook entry, A2780 assay: IC50 of CNC1CCC(Cc2ccnc(Nc3ncc(-c4ccc(F)cc4)s3)c2)CC1 (stereo not shown) [Example 016] = ?
> 1 µM

Recorded IC50 for c1ccc(-c2cnc(Nc3cc(CC4CCCNCC4)ccn3)s2)cc1 (stereo not shown) [Example 026] with A2780, please?
≤ 1 µM

Request - read-out IC50 | tested on A2780 | compound Fc1ccc(-c2cnc(Nc3cccc(CC4CCCNCC4)n3)s2)cc1 (stereo not shown) [Example 006]
≤ 1 µM

====

Tested on: A375
Test: MTT proliferation / cytotoxicity assay
Format: cell-based, human
Settings: Homo sapiens, A-375, 72 h
List of IC50 values.

Form: Entry = Fc1ccc(-c2cnc(Nc3cc(CC4CNCCNC4)ccn3)s2)cc1 [Example 019] | System = A375 | IC50 = ____
> 1 µM

Please provide the recorded IC50 for OCCN1CCC(c2ccnc(Nc3ncc(-c4ccc(F)c(F)c4)s3)c2)CC1 [Example 038] , tested on A375.
> 1 µM

A375 / IC50 / CC(=O)N1CCCC(Cc2cccc(Nc3ncc(-c4ccc(F)cc4)s3)n2)CC1 (centres unmarked) [Example 007] : value?
> 1 µM

Lab request: please report IC50 under test system A375 for OCCN1CCC(Cc2ccnc(Nc3ncc(-c4ccc(F)cc4)s3)c2)CC1 [Example 003]
> 1 µM

Recorded IC50 for CN1CCCC(Cc2cccc(Nc3ncc(-c4ccc(F)cc4)s3)n2)CC1 (centres unmarked) [Example 008] with A375, please?
> 1 µM

# returns recorded IC50 (system: A375) for OCCN1CCOCC(Cc2ccnc(Nc3ncc(-c4ccc(F)cc4)s3)c2)C1 (centres unmarked) [Example 011]
> 1 µM

Requested read-out IC50, target or system A375, entry c1ccc(-c2cnc(Nc3cc(CC4CCCNCC4)ccn3)s2)cc1 (centres unmarked) [Example 026]
> 1 µM

IC50 of CS(=O)(=O)N1CCC(Cc2ccnc(Nc3ncc(-c4ccc(F)cc4)s3)c2)CC1 [Example 005] on A375?
> 1 µM

Any idea what IC50 came out for Fc1ccc(-c2cnc(Nc3cccc(CC4CCCNCC4)n3)s2)cc1 (centres unmarked) [Example 006] on A375?
≤ 1 µM

I'm curious: which IC50 was measured for c1ccc(-c2cnc(Nc3cc(CCC4CCCN4)ccn3)s2)cc1 (centres unmarked) [Example 015] tested on A375?
> 1 µM

Give IC50 (A375) of the following compound: c1ccc(-c2cnc(Nc3cc(C4CCCNC4)ccn3)s2)cc1 (centres unmarked) [Example 028]
> 10 µM

Given the entry CN1CCC(Cc2ccnc(Nc3ncc(-c4ccc(F)cc4)s3)c2)CC1 [Example 004] , what IC50 was observed with A375?
> 1 µM

// lookup IC50 | system=A375 | key= OCCN1CCC(c2ccnc(Nc3ncc(CC(F)(F)F)s3)c2)CC1 [Example 040]
> 1 µM

Test system A375; read-out IC50; what value for OCCN1CCC(c2ccnc(Nc3ncc(-c4cccc(F)c4)s3)c2)CC1 [Example 037] ?
> 10 µM
